FYI, the data here is from the NIST ThermoML archive (doi:10.1021/acs.jced.8b00537).

Details: 338.15 K; 100 kPa; Liquid; Vibrating tube method
compounds and their reported mass density
Reported metric: mass density (kg/m3)

1. CC[S+](CC)CC.O=S(=O)([N-]S(=O)(=O)C(F)(F)F)C(F)(F)F [triethylsulfonium bis((trifluoromethyl)sulfonyl)imide]: 1421.87
2. CCCC[N+]1(C)CCCC1.O=S(=O)([N-]S(=O)(=O)C(F)(F)F)C(F)(F)F: 1359.28
3. C=CCn1cc[n+](C)c1.O=S(=O)([N-]S(=O)(=O)C(F)(F)F)C(F)(F)F: 1459.65
4. CCCO: 766.03
5. O=S(=O)([N-]S(=O)(=O)C(F)(F)F)C(F)(F)F.On1cc[n+](O)c1 [1,3-dihydroxyimidazolium bis(trifluoromethylsulfonyl)imide]: 1694.01

====

Conditions: 343.15 K; 100 kPa; Liquid; Capillary tube (Ostwald / Ubbelohde) method
Listed next: entries and their corresponding log10(viscosity).
Reported metric: log10(viscosity) (log10 of the value in mPa·s)

1. O=S(=O)([N-]S(=O)(=O)C(F)(F)F)C(F)(F)F.On1cc[n+](O)c1 [1,3-dihydroxyimidazolium bis(trifluoromethylsulfonyl)imide]: 1.37
2. CCCC[N+]1(C)CCCC1.O=S(=O)([N-]S(=O)(=O)C(F)(F)F)C(F)(F)F: 1.20
3. CC[S+](CC)CC.O=S(=O)([N-]S(=O)(=O)C(F)(F)F)C(F)(F)F [triethylsulfonium bis((trifluoromethyl)sulfonyl)imide]: 0.94
4. CCCO [propan-1-ol]: -0.13
5. C=CCn1cc[n+](C)c1.O=S(=O)([N-]S(=O)(=O)C(F)(F)F)C(F)(F)F: 0.96

====

Conditions: 293.15 K; 100 kPa; Liquid; Frequency=3 MHz; Single path-length method
// reported speed of sound per item
Reported metric: speed of sound (m/s)

1) CCCO [propan-1-ol]: 1223.8
2) C=CCn1cc[n+](C)c1.O=S(=O)([N-]S(=O)(=O)C(F)(F)F)C(F)(F)F: 1251.6
3) O=S(=O)([N-]S(=O)(=O)C(F)(F)F)C(F)(F)F.On1cc[n+](O)c1 [1,3-dihydroxyimidazolium bis(trifluoromethylsulfonyl)imide]: 1208.2
4) CCCC[N+]1(C)CCCC1.O=S(=O)([N-]S(=O)(=O)C(F)(F)F)C(F)(F)F: 1280.8
5) CC[S+](CC)CC.O=S(=O)([N-]S(=O)(=O)C(F)(F)F)C(F)(F)F [triethylsulfonium bis((trifluoromethyl)sulfonyl)imide]: 1252.9

====

# mass density listing for each entry below
Settings: 293.15 K; 100 kPa; Liquid; Vibrating tube method
Reported metric: mass density (kg/m3)

1) C=CCn1cc[n+](C)c1.O=S(=O)([N-]S(=O)(=O)C(F)(F)F)C(F)(F)F: 1504.69
2) CCCC[N+]1(C)CCCC1.O=S(=O)([N-]S(=O)(=O)C(F)(F)F)C(F)(F)F: 1398.78
3) CC[S+](CC)CC.O=S(=O)([N-]S(=O)(=O)C(F)(F)F)C(F)(F)F [triethylsulfonium bis((trifluoromethyl)sulfonyl)imide]: 1464.83
4) O=S(=O)([N-]S(=O)(=O)C(F)(F)F)C(F)(F)F.On1cc[n+](O)c1 [1,3-dihydroxyimidazolium bis(trifluoromethylsulfonyl)imide]: 1746.4
5) CCCO [propan-1-ol]: 803.65

====

Conditions: 308.15 K; 100 kPa; Liquid; Capillary tube (Ostwald / Ubbelohde) method
We begin with a simple list: items and their reported viscosity.
Reported metric: viscosity (mPa·s)

1. CCCO: 1.506
2. C=CCn1cc[n+](C)c1.O=S(=O)([N-]S(=O)(=O)C(F)(F)F)C(F)(F)F: 23.96
3. O=S(=O)([N-]S(=O)(=O)C(F)(F)F)C(F)(F)F.On1cc[n+](O)c1 [1,3-dihydroxyimidazolium bis(trifluoromethylsulfonyl)imide]: 96.92
4. CCCC[N+]1(C)CCCC1.O=S(=O)([N-]S(=O)(=O)C(F)(F)F)C(F)(F)F: 49.84
5. CC[S+](CC)CC.O=S(=O)([N-]S(=O)(=O)C(F)(F)F)C(F)(F)F [triethylsulfonium bis((trifluoromethyl)sulfonyl)imide]: 22.64

====

Settings: 303.15 K; 100 kPa; Liquid; Vibrating tube method
Below: a set of entries, each annotated with reported mass density.
Reported metric: mass density (kg/m3)

1) CCCO: 795.61
2) C=CCn1cc[n+](C)c1.O=S(=O)([N-]S(=O)(=O)C(F)(F)F)C(F)(F)F: 1494.52
3) O=S(=O)([N-]S(=O)(=O)C(F)(F)F)C(F)(F)F.On1cc[n+](O)c1 [1,3-dihydroxyimidazolium bis(trifluoromethylsulfonyl)imide]: 1734.52
4) CCCC[N+]1(C)CCCC1.O=S(=O)([N-]S(=O)(=O)C(F)(F)F)C(F)(F)F: 1389.87
5) CC[S+](CC)CC.O=S(=O)([N-]S(=O)(=O)C(F)(F)F)C(F)(F)F [triethylsulfonium bis((trifluoromethyl)sulfonyl)imide]: 1455.14

====

Settings: 338.15 K; 100 kPa; Liquid; Frequency=3 MHz; Single path-length method
Reported metric: speed of sound (m/s)

1) CCCC[N+]1(C)CCCC1.O=S(=O)([N-]S(=O)(=O)C(F)(F)F)C(F)(F)F: 1183.2
2) C=CCn1cc[n+](C)c1.O=S(=O)([N-]S(=O)(=O)C(F)(F)F)C(F)(F)F: 1153.8
3) CCCO [propan-1-ol]: 1071.5
4) CC[S+](CC)CC.O=S(=O)([N-]S(=O)(=O)C(F)(F)F)C(F)(F)F [triethylsulfonium bis((trifluoromethyl)sulfonyl)imide]: 1166.8
5) O=S(=O)([N-]S(=O)(=O)C(F)(F)F)C(F)(F)F.On1cc[n+](O)c1 [1,3-dihydroxyimidazolium bis(trifluoromethylsulfonyl)imide]: 1110.4

====

Settings: 313.15 K; 100 kPa; Liquid; Frequency=3 MHz; Single path-length method
The reader will find reported speed of sound values listed item by item below.
Reported metric: speed of sound (m/s)

1. CCCO [propan-1-ol]: 1155.5
2. O=S(=O)([N-]S(=O)(=O)C(F)(F)F)C(F)(F)F.On1cc[n+](O)c1 [1,3-dihydroxyimidazolium bis(trifluoromethylsulfonyl)imide]: 1163.1
3. CC[S+](CC)CC.O=S(=O)([N-]S(=O)(=O)C(F)(F)F)C(F)(F)F [triethylsulfonium bis((trifluoromethyl)sulfonyl)imide]: 1212.7
4. C=CCn1cc[n+](C)c1.O=S(=O)([N-]S(=O)(=O)C(F)(F)F)C(F)(F)F: 1206.8
5. CCCC[N+]1(C)CCCC1.O=S(=O)([N-]S(=O)(=O)C(F)(F)F)C(F)(F)F: 1236.1

====

Conditions: 303.15 K; 100 kPa; Liquid; Capillary tube (Ostwald / Ubbelohde) method
Mark each entry T if its viscosity sits below 30 mPa·s, and F for all others.

1) C=CCn1cc[n+](C)c1.O=S(=O)([N-]S(=O)(=O)C(F)(F)F)C(F)(F)F: T
2) CC[S+](CC)CC.O=S(=O)([N-]S(=O)(=O)C(F)(F)F)C(F)(F)F [triethylsulfonium bis((trifluoromethyl)sulfonyl)imide]: T
3) CCCO: T
4) O=S(=O)([N-]S(=O)(=O)C(F)(F)F)C(F)(F)F.On1cc[n+](O)c1 [1,3-dihydroxyimidazolium bis(trifluoromethylsulfonyl)imide]: F
5) CCCC[N+]1(C)CCCC1.O=S(=O)([N-]S(=O)(=O)C(F)(F)F)C(F)(F)F: F

====

Conditions: 278.15 K; 100 kPa; Liquid; Vibrating tube method
Reported metric: mass density (kg/m3)

1) CCCO: 815.52
2) CC[S+](CC)CC.O=S(=O)([N-]S(=O)(=O)C(F)(F)F)C(F)(F)F [triethylsulfonium bis((trifluoromethyl)sulfonyl)imide]: 1479.52
3) CCCC[N+]1(C)CCCC1.O=S(=O)([N-]S(=O)(=O)C(F)(F)F)C(F)(F)F: 1412.33
4) C=CCn1cc[n+](C)c1.O=S(=O)([N-]S(=O)(=O)C(F)(F)F)C(F)(F)F: 1520.13

====

Settings: 293.15 K; 100 kPa; Liquid; Capillary tube (Ostwald / Ubbelohde) method
Reported metric: log10(viscosity) (log10 of the value in mPa·s)

1) C=CCn1cc[n+](C)c1.O=S(=O)([N-]S(=O)(=O)C(F)(F)F)C(F)(F)F: 1.62
2) CC[S+](CC)CC.O=S(=O)([N-]S(=O)(=O)C(F)(F)F)C(F)(F)F [triethylsulfonium bis((trifluoromethyl)sulfonyl)imide]: 1.60
3) O=S(=O)([N-]S(=O)(=O)C(F)(F)F)C(F)(F)F.On1cc[n+](O)c1 [1,3-dihydroxyimidazolium bis(trifluoromethylsulfonyl)imide]: 2.38
4) CCCC[N+]1(C)CCCC1.O=S(=O)([N-]S(=O)(=O)C(F)(F)F)C(F)(F)F: 1.99
5) CCCO: 0.33
